Reference source for all entries: the supplement of paper PMC10724198

protein stability index values for the sequences below.
Test system: Saccharomyces cerevisiae
Assay overview: protein stability index of tFT-peptide fusion (C-terminal peptide) (PSI (0-1 scale)); higher = more stable (slower turnover)
Measurement conditions: genetic background: das1 deletion; temperature: 30 C
Give only the figure.

Below, 2 sequences whose answers are already recorded.
>  <Seq string>
FQTITGEEKEKK [ECM16 C-terminal 12 aa]

>  <Obs value>
0.708

$$$$
>  <Seq string>
MEDEDMVDVIID [ESC2 C-terminal 12 aa]

>  <Obs value>
0.689

$$$$

Query: Recorded protein stability index of VYEVVCDSVRNW [MRX21 C-terminal 12 aa] , please.
Result: 0.692

Query: Which protein stability index value is on record for REVREIHEMYCK [YKR012C C-terminal 12 aa] ?
Result: 0.696

Query: Fill in: protein stability index of INDNNENASNSV [GLD1 C-terminal 12 aa] is ___
Result: 0.694

Query: Request the reported protein stability index associated with YALKRNAFKLLK [CRD1 C-terminal 12 aa]
Result: 0.682

----------
System: Saccharomyces cerevisiae
Assay overview: protein stability index of tFT-peptide fusion (C-terminal peptide) (PSI (0-1 scale)); higher = more stable (slower turnover)
Measurement conditions: genetic background: cdc53-1; temperature: 37 C
# Lookup of reported protein stability index keyed by entry
Give only the figure.

>  <Seq string>
VCLVAGVFFCLL

>  <System>
Saccharomyces cerevisiae

>  <protein stability index>
0.587

$$$$
>  <Seq string>
ACGAGFIILLGL

>  <System>
Saccharomyces cerevisiae

>  <protein stability index>
0.613

$$$$

Please turn your attention to the following entry.
Query: Using the record for VWWWGAVGWLMV , report its protein stability index.
Result: 0.602

----------
Test system: Saccharomyces cerevisiae
Assay overview: protein stability index of tFT-peptide fusion (C-terminal peptide) (PSI (0-1 scale)); higher = more stable (slower turnover)
Measurement conditions: genetic background: wild type; temperature: 30 C
Attribute: protein stability index

Past entries and their recorded results:
>  <Seq string>
LSLWLFRILSVR

>  <protein stability index>
0.444

$$$$
>  <Seq string>
SPPPPRAPTPPP

>  <protein stability index>
0.698

$$$$
>  <Seq string>
RVGWCGGWRGGR

>  <protein stability index>
0.677

$$$$
>  <Seq string>
SGVPGGSVGVPG

>  <protein stability index>
0.661

$$$$
>  <Seq string>
SFFCFFLSFFYL

>  <protein stability index>
0.502

$$$$
>  <Seq string>
FPVGVRLNQNET

>  <protein stability index>
0.718

$$$$
>  <Seq string>
SGVVWFYIFCLS

>  <protein stability index>
0.361

$$$$
>  <Seq string>
LPPPPLPPHPPL

>  <protein stability index>
0.748

$$$$

Next:
Query: For the sequence shown here, QYSDRQGGRATD , give the reported protein stability index.
Result: 0.708

----------
Test system: Saccharomyces cerevisiae
Assay overview: protein stability index of tFT-peptide fusion (C-terminal peptide) (PSI (0-1 scale)); higher = more stable (slower turnover)
Measurement conditions: genetic background: wild type; temperature: 37 C
Label true (1) when protein stability index is at or above 0.5; anything below gets false (0).

>  <Seq string>
GGSLWLVHLKTI

>  <Category label>
false (0)

$$$$
>  <Seq string>
LVPLSLLLCFFV

>  <Category label>
false (0)

$$$$
>  <Seq string>
EGGGGRFWVCVG

>  <Category label>
true (1)

$$$$

Query: Would you say IRWCLVSVFYVV shows protein stability index at minimum 0.5?
Result: false (0)

Query: # bool: protein stability index of WVVLVCGFVLLG >= 0.5
Result: false (0)

----------
Quick reference: protein stability index of the listed items.
Test system: Saccharomyces cerevisiae
Assay overview: protein stability index of tFT-peptide fusion (C-terminal peptide) (PSI (0-1 scale)); higher = more stable (slower turnover)
Measurement conditions: genetic background: wild type; temperature: 30 C
Give the value as a plain number.

Example entries begin here.
>  <Seq string>
RVHEMSLGPIRL

>  <System>
Saccharomyces cerevisiae

>  <Measured quantity>
protein stability index

>  <Obs value>
0.715

$$$$
>  <Seq string>
FNRTRRLPLDSL

>  <System>
Saccharomyces cerevisiae

>  <Measured quantity>
protein stability index

>  <Obs value>
0.702

$$$$
>  <Seq string>
LLALAPFWVRHK

>  <System>
Saccharomyces cerevisiae

>  <Measured quantity>
protein stability index

>  <Obs value>
0.68

$$$$
>  <Seq string>
PPPPPPPPPRSS

>  <System>
Saccharomyces cerevisiae

>  <Measured quantity>
protein stability index

>  <Obs value>
0.718

$$$$

Query: Quick one: protein stability index for PRTRLPPQLRLP ?
Result: 0.694

Query: Given the entry PEILSLDPLPSL , report its measured protein stability index.
Result: 0.662

Query: Quick one: protein stability index of RGSWSDEFWREG ?
Result: 0.84

Query: Suppose we examine the sequence LPSLSSFALHMP ; what protein stability index value has been reported?
Result: 0.685

Query: # lookup: protein stability index of LNLSIRDVTSSG
Result: 0.657

Query: GET /values?readout=protein stability index&item= SCVWVPGCGPSR
Result: 0.679

Query: Sample GNKAPHTRTIGG — what was its protein stability index?
Result: 0.706

Query: For the sequence shown here, PSSPSPPYPFAP , give the reported protein stability index.
Result: 0.684

Query: Could you share which protein stability index value was measured for PPHSALPLPPSP ?
Result: 0.726

Query: Endpoint output: protein stability index of TIHKRTLEGSYN . Value?
Result: 0.65

Query: Fill in: protein stability index of VLRFHIRRTQQQ is ___
Result: 0.707

Query: What does the record list as protein stability index for GLVVVVRLQYSP ?
Result: 0.404

Query: Given the entry VRERVRRWVGDG , report its measured protein stability index.
Result: 0.575

Query: Returns the measured protein stability index for the input sequence. Input: VGRSAAGRLELI
Result: 0.679

Query: Find the recorded protein stability index belonging to RGSTLPRRVRLK and report it.
Result: 0.641

Query: Tell me the measured protein stability index of LRYLEGWWVLRW , please.
Result: 0.554

Query: Consider the sequence shown here: SEYHGRAQKTGP What is its recorded protein stability index?
Result: 0.744

Query: # input sequence: PLPPFPPSPPFT ; wanted: its protein stability index
Result: 0.684

Query: Fill blank: measured protein stability index of the sequence RFCVTASDLREF is ____.
Result: 0.751

Query: Given the sequence VRVALISDRGKQ , what is its reported protein stability index?
Result: 0.738

Query: Find the recorded protein stability index belonging to GVWVMSGPVTRR and report it.
Result: 0.716

----------
System: Saccharomyces cerevisiae
Assay overview: protein stability index of tFT-peptide fusion (C-terminal peptide) (PSI (0-1 scale)); higher = more stable (slower turnover)
Measurement conditions: genetic background: wild type; temperature: 30 C
Quick list: protein stability index per entry.
Answer as a number with no unit attached.

>  <Seq string>
PITLRRRSRPPT

>  <Obs value>
0.692

$$$$
>  <Seq string>
WAGGGVWRVGGR

>  <Obs value>
0.715

$$$$
>  <Seq string>
GLMRDKEMRMPK

>  <Obs value>
0.68

$$$$
>  <Seq string>
HSPHLLSFFSPM

>  <Obs value>
0.71

$$$$
>  <Seq string>
LLLFPRFPPPPL

>  <Obs value>
0.711

$$$$

The record that follows has no protein stability index shown yet.
Query: Looking for the measured protein stability index of WGGGRGLRGRWG , can you help?
Result: 0.694

----------
Test system: Saccharomyces cerevisiae
Assay overview: protein stability index of tFT-peptide fusion (C-terminal peptide) (PSI (0-1 scale)); higher = more stable (slower turnover)
Measurement conditions: genetic background: wild type; temperature: 30 C
Classify as follows. Reported protein stability index greater than or equal to 0.7: t. Reported protein stability index below: f.

As a guide, the following entries are already answered.
>  <Seq string>
VSFSSLLRFCRG

>  <System>
Saccharomyces cerevisiae

>  <Category label>
f

$$$$
>  <Seq string>
LVSHVPLLPMTP

>  <System>
Saccharomyces cerevisiae

>  <Category label>
t

$$$$
>  <Seq string>
PVPLEAPSPPPP

>  <System>
Saccharomyces cerevisiae

>  <Category label>
f

$$$$
>  <Seq string>
LGLPISREASVG

>  <System>
Saccharomyces cerevisiae

>  <Category label>
f

$$$$
>  <Seq string>
AGRRASGRVGSG

>  <System>
Saccharomyces cerevisiae

>  <Category label>
t

$$$$
>  <Seq string>
PTPLSPRNTILR

>  <System>
Saccharomyces cerevisiae

>  <Category label>
t

$$$$
>  <Seq string>
TRWRPPCAPSGS

>  <System>
Saccharomyces cerevisiae

>  <Category label>
t

$$$$
>  <Seq string>
GKLLPCVRGRGL

>  <System>
Saccharomyces cerevisiae

>  <Category label>
f

$$$$

Query: Decide: is the reported value of protein stability index for VQGGRNGEGGRG equal to or greater than 0.7?
Result: f

Query: Textbook exercise: given the entry VAAGGTVSPSSQ , state whether its protein stability index is greater than or equal to 0.7.
Result: f

Query: Answer whether protein stability index of LAGRARLVMCPR is greater than or equal to 0.7.
Result: f
